test: photoluminescence quantum yield (fraction); solvent given as SMILES; settings: in ClCCl
Parameter measured: photoluminescence quantum yield

>>> value_reported("CCN(CC)c1ccc2cc(C#N)/c(=N\\C(=O)c3ccco3)oc2c1")
0.9
>>> value_reported("CC[N+](CC)=c1ccc2c(C(F)(F)F)c3c(oc-2c1)-c1ccc(N(C)C)cc1CC3")
0.336
>>> value_reported("FC(F)(F)C(F)(F)C(F)(F)C(F)(F)C(F)(F)C(F)(F)C(F)(F)C(F)(F)CCOc1nnc(Cl)nn1")
0.44
>>> value_reported("c1ccc(C(=C(c2ccccc2)c2ccc(-c3nc4c(-c5ccc(C(=C(c6ccccc6)c6ccccc6)c6ccccc6)cc5)sc(-c5ccc(C(=C(c6ccccc6)c6ccccc6)c6ccccc6)cc5)c4nc3-c3ccc(C(=C(c4ccccc4)c4ccccc4)c4ccccc4)cc3)cc2)c2ccccc2)cc1")
0.109

Sourced from the Deep4Chem optical property database
